test system: NCI-H1666; assay: relative viability (nuclei count vs DMSO), 5 days (fraction); higher = more cells survive; details: first compound 0.253 µM
I'd appreciate it if you could supply relative viability values for the items below.
Answer field: number only, no words.

Query block: Recorded relative viability of COc1nc(C)cnc1NS(=O)(=O)c1cccnc1-c1ccc(-c2nnco2)cc1 [Zibotentan] + O=C(CCCCCCC(=O)Nc1ccccc1)NO [Vorinostat] (partner 1 µM) , please.
Result block: 0.95

Query block: Recorded relative viability of COc1nc(C)cnc1NS(=O)(=O)c1cccnc1-c1ccc(-c2nnco2)cc1 [Zibotentan] + C[C@@H](Oc1cc(-c2cnn(C3CCNCC3)c2)cnc1N)c1c(Cl)ccc(F)c1Cl [Crizotinib] (partner 1 µM) , please.
Result block: 0.856

Query block: Recorded relative viability of O=c1cc(-c2cccc3c2Sc2ccccc2S3)oc(N2CCOCC2)c1 + CC1(C)CCC(c2ccc(Cl)cc2)=C(CN2CCN(c3ccc(C(=O)NS(=O)(=O)c4ccc(N[C@H](CCN5CCOCC5)CSc5ccccc5)c(S(=O)(=O)C(F)(F)F)c4)cc3)CC2)C1 [Navitoclax] (partner 0.5 µM) , please.
Result block: 0.976

Query block: Recorded relative viability of COc1nc(C)cnc1NS(=O)(=O)c1cccnc1-c1ccc(-c2nnco2)cc1 [Zibotentan] + N=C(N)NC(=N)NCCc1ccccc1 [Phenformin] (partner 250 µM) , please.
Result block: 0.54

Query block: Recorded relative viability of O=c1cc(-c2cccc3c2Sc2ccccc2S3)oc(N2CCOCC2)c1 + COc1cc2c(Oc3ccc(NC(=O)C4(C(=O)Nc5ccc(F)cc5)CC4)cc3F)ccnc2cc1OCCCN1CCOCC1 [Foretinib] (partner 0.25 µM) , please.
Result block: 1.07

###

system: NCI-H441; experiment: relative viability (nuclei count vs DMSO), 5 days (fraction); higher = more cells survive; details: first compound 6.325 µM
relative viability less than 0.6 is label 1; relative viability greater than or equal to 0.6 is label 0.

Query block: For COCC1(CO)C(=O)C2CCN1CC2 (stereo unspecified) [PRIMA-1MET] + C[C@]1(O)C[C@@H](c2nc(-c3ccc4ccc(-c5ccccc5)nc4c3)c3c(N)nccn32)C1 [Linsitinib] (partner 1 µM) , is the recorded relative viability below the cut-off of 0.6?
Result block: label 1

Query block: For COCC1(CO)C(=O)C2CCN1CC2 (stereo unspecified) [PRIMA-1MET] + CCNC(=O)c1noc(-c2cc(C(C)C)c(O)cc2O)c1-c1ccc(CN2CCOCC2)cc1 [Luminespib] (partner 0.01 µM) , is the recorded relative viability below the cut-off of 0.6?
Result block: label 1

Query block: For COCC1(CO)C(=O)C2CCN1CC2 (stereo unspecified) [PRIMA-1MET] + N=C(N)NC(=N)NCCc1ccccc1 [Phenformin] (partner 250 µM) , is the recorded relative viability below the cut-off of 0.6?
Result block: label 0

Query block: For COCC1(CO)C(=O)C2CCN1CC2 (stereo unspecified) [PRIMA-1MET] + C[C@@H](Oc1cc(-c2cnn(C3CCNCC3)c2)cnc1N)c1c(Cl)ccc(F)c1Cl [Crizotinib] (partner 1 µM) , is the recorded relative viability below the cut-off of 0.6?
Result block: label 0

Query block: For COCC1(CO)C(=O)C2CCN1CC2 (stereo unspecified) [PRIMA-1MET] + Cc1cc(Nc2cc(N3CCN(C)CC3)nc(Sc3ccc(NC(=O)C4CC4)cc3)n2)n[nH]1 [Tozasertib] (partner 0.1 µM) , is the recorded relative viability below the cut-off of 0.6?
Result block: label 0

###

test system: NCI-H2342; assay: relative viability (nuclei count vs DMSO), 5 days (fraction); higher = more cells survive; conditions: first compound 0.08 µM
Observation type: relative viability
Answer field: number only, no words.

Query block: Recorded relative viability of COc1nc(C)cnc1NS(=O)(=O)c1cccnc1-c1ccc(-c2nnco2)cc1 [Zibotentan] + Cc1nc(Nc2ncc(C(=O)Nc3c(C)cccc3Cl)s2)cc(N2CCN(CCO)CC2)n1 [Dasatinib] (partner 0.075 µM) , please.
Result block: 0.354

Query block: Recorded relative viability of COc1nc(C)cnc1NS(=O)(=O)c1cccnc1-c1ccc(-c2nnco2)cc1 [Zibotentan] + NC(=O)Nc1cc(-c2cccc(F)c2)sc1C(=O)N[C@H]1CCCNC1 [AZD7762] (partner 0.2 µM) , please.
Result block: 0.556

Query block: Recorded relative viability of O=c1cc(-c2cccc3c2Sc2ccccc2S3)oc(N2CCOCC2)c1 + Cc1cc(Nc2cc(N3CCN(C)CC3)nc(Sc3ccc(NC(=O)C4CC4)cc3)n2)n[nH]1 [Tozasertib] (partner 0.1 µM) , please.
Result block: 0.505

Query block: Recorded relative viability of COc1nc(C)cnc1NS(=O)(=O)c1cccnc1-c1ccc(-c2nnco2)cc1 [Zibotentan] + COc1cccc2cc(-c3nc([C@H]4CC[C@H](C(=O)O)CC4)n4ncnc(N)c34)[nH]c12 [OSI-027] (partner 0.5 µM) , please.
Result block: 0.621

Query block: Recorded relative viability of O=c1cc(-c2cccc3c2Sc2ccccc2S3)oc(N2CCOCC2)c1 + Nc1ncn([C@H]2C[C@H](O)[C@@H](CO)O2)c(=O)n1 [Decitabine] (partner 2 µM) , please.
Result block: 0.662

Query block: Recorded relative viability of COc1nc(C)cnc1NS(=O)(=O)c1cccnc1-c1ccc(-c2nnco2)cc1 [Zibotentan] + O=C(c1cc(Cc2n[nH]c(=O)c3ccccc23)ccc1F)N1CCN(C(=O)C2CC2)CC1 [Olaparib] (partner 8 µM) , please.
Result block: 0.407

Query block: Recorded relative viability of O=c1cc(-c2cccc3c2Sc2ccccc2S3)oc(N2CCOCC2)c1 + O=C(c1cc(Cc2n[nH]c(=O)c3ccccc23)ccc1F)N1CCN(C(=O)C2CC2)CC1 [Olaparib] (partner 8 µM) , please.
Result block: 0.52

Query block: Recorded relative viability of COc1nc(C)cnc1NS(=O)(=O)c1cccnc1-c1ccc(-c2nnco2)cc1 [Zibotentan] + Cc1cc(Nc2cc(N3CCN(C)CC3)nc(Sc3ccc(NC(=O)C4CC4)cc3)n2)n[nH]1 [Tozasertib] (partner 0.1 µM) , please.
Result block: 0.496

###

test system: NCI-H1666; test: relative viability (nuclei count vs DMSO), 5 days (fraction); higher = more cells survive; details: first compound 0.2 µM
Observation type: relative viability
Answer field: number only, no words.

Query block: Recorded relative viability of COCC1(CO)C(=O)C2CCN1CC2 (configuration not stated) [PRIMA-1MET] + O=C(CCCCCCC(=O)Nc1ccccc1)NO [Vorinostat] (partner 1 µM) , please.
Result block: 1.03

Query block: Recorded relative viability of COCC1(CO)C(=O)C2CCN1CC2 (configuration not stated) [PRIMA-1MET] + Cc1nc(NC(=O)N2CCC[C@H]2C(N)=O)sc1-c1ccnc(C(C)(C)C(F)(F)F)c1 [Alpelisib] (partner 2 µM) , please.
Result block: 1.1

Query block: Recorded relative viability of COCC1(CO)C(=O)C2CCN1CC2 (configuration not stated) [PRIMA-1MET] + CC1(C)CCC(c2ccc(Cl)cc2)=C(CN2CCN(c3ccc(C(=O)NS(=O)(=O)c4ccc(N[C@H](CCN5CCOCC5)CSc5ccccc5)c(S(=O)(=O)C(F)(F)F)c4)cc3)CC2)C1 [Navitoclax] (partner 0.5 µM) , please.
Result block: 1.01

Query block: Recorded relative viability of COCC1(CO)C(=O)C2CCN1CC2 (configuration not stated) [PRIMA-1MET] + CC(=O)c1c(C)c2cnc(Nc3ccc(N4CCNCC4)cn3)nc2n(C2CCCC2)c1=O [Palbociclib] (partner 0.5 µM) , please.
Result block: 0.69

Query block: Recorded relative viability of COCC1(CO)C(=O)C2CCN1CC2 (configuration not stated) [PRIMA-1MET] + O=C(c1cc(Cc2n[nH]c(=O)c3ccccc23)ccc1F)N1CCN(C(=O)C2CC2)CC1 [Olaparib] (partner 8 µM) , please.
Result block: 0.773

Query block: Recorded relative viability of COCC1(CO)C(=O)C2CCN1CC2 (configuration not stated) [PRIMA-1MET] + C[C@@H](Oc1cc(-c2cnn(C3CCNCC3)c2)cnc1N)c1c(Cl)ccc(F)c1Cl [Crizotinib] (partner 1 µM) , please.
Result block: 1.15

Query block: Recorded relative viability of COCC1(CO)C(=O)C2CCN1CC2 (configuration not stated) [PRIMA-1MET] + Nc1ncn([C@H]2C[C@H](O)[C@@H](CO)O2)c(=O)n1 [Decitabine] (partner 2 µM) , please.
Result block: 0.637

###

system: HARA; experiment: relative viability (nuclei count vs DMSO), 5 days (fraction); higher = more cells survive; settings: first compound 0.03162 µM
Observation type: relative viability

Query block: Recorded relative viability of O=c1cc(N2CCOCC2)oc2c(-c3cccc4c3sc3ccccc34)cccc12 + CS(=O)(=O)CCNCc1ccc(-c2ccc3ncnc(Nc4ccc(OCc5cccc(F)c5)c(Cl)c4)c3c2)o1 [Lapatinib] (partner 2 µM) , please.
Result block: 0.756

Query block: Recorded relative viability of O=c1cc(N2CCOCC2)oc2c(-c3cccc4c3sc3ccccc34)cccc12 + O=C(c1cc(Cc2n[nH]c(=O)c3ccccc23)ccc1F)N1CCN(C(=O)C2CC2)CC1 [Olaparib] (partner 8 µM) , please.
Result block: 1.01

Query block: Recorded relative viability of CCN(CC)CCCCNc1ncc2cc(-c3cc(OC)cc(OC)c3)c(NC(=O)NC(C)(C)C)nc2n1 + C[C@]1(O)C[C@@H](c2nc(-c3ccc4ccc(-c5ccccc5)nc4c3)c3c(N)nccn32)C1 [Linsitinib] (partner 1 µM) , please.
Result block: 1

Query block: Recorded relative viability of O=c1cc(N2CCOCC2)oc2c(-c3cccc4c3sc3ccccc34)cccc12 + Nc1nc2[nH]cc(CCc3ccc(C(=O)N[C@@H](CCC(=O)O)C(=O)O)cc3)c2c(=O)[nH]1 [Pemetrexed] (partner 0.2 µM) , please.
Result block: 0.271

Query block: Recorded relative viability of CCN(CC)CCCCNc1ncc2cc(-c3cc(OC)cc(OC)c3)c(NC(=O)NC(C)(C)C)nc2n1 + COc1cccc2cc(-c3nc([C@H]4CC[C@H](C(=O)O)CC4)n4ncnc(N)c34)[nH]c12 [OSI-027] (partner 0.5 µM) , please.
Result block: 0.647

Query block: Recorded relative viability of O=c1cc(N2CCOCC2)oc2c(-c3cccc4c3sc3ccccc34)cccc12 + COc1cc2c(Oc3ccc(NC(=O)C4(C(=O)Nc5ccc(F)cc5)CC4)cc3F)ccnc2cc1OCCCN1CCOCC1 [Foretinib] (partner 0.25 µM) , please.
Result block: 0.897
